target: canine TRPM8 (Canis lupus familiaris, UniProt Q1A7N1); construct: expressed in transfected cells; test: In Vitro Canine TRPM8 Functional Assay (Ca2+ fluorescence, icilin activation); type: cell-based; settings: HEK293 cells stably expressing canine TRPM8; icilin activation; Ca2+ fluorescence
Sequence (Q1A7N1 1-1104): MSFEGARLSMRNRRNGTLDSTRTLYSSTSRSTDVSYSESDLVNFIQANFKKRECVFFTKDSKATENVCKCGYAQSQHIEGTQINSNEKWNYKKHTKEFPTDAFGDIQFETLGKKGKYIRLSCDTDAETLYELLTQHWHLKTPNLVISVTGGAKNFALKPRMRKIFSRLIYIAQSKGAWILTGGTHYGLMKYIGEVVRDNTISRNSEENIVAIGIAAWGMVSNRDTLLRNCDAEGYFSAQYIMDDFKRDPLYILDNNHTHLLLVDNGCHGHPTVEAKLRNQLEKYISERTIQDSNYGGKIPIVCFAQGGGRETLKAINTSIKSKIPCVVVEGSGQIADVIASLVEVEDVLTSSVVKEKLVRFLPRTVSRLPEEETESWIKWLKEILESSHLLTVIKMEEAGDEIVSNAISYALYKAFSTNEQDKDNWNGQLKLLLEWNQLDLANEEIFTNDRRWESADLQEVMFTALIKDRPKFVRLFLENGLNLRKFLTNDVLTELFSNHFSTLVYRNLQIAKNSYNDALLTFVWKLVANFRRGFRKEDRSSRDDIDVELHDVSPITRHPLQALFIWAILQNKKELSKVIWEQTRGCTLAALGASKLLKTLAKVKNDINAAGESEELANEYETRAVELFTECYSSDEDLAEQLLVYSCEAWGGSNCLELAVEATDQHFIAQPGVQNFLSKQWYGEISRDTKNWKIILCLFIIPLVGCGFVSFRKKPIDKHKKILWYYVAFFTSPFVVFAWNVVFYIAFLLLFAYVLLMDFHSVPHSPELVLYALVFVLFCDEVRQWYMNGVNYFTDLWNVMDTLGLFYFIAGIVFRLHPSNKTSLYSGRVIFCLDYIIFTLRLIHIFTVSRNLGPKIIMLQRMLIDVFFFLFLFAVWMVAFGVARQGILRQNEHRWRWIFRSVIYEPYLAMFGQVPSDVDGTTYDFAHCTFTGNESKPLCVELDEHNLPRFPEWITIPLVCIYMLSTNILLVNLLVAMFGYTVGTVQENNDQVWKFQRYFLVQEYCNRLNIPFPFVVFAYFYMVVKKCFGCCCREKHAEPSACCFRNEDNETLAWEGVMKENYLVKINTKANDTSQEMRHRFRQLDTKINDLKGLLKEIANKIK
pIC50: −log10 of the molar value.
Each item that follows carries a reported pIC50.
Quantity Kind: pIC50

compound="O=C(C(Nc1ccccc1F)c1ccc(-c2cccnc2)cc1)N1CCCC1c1ccccc1Cl (stereo not drawn)" numeric_result=7.77
compound="O=C(C(Nc1ccccc1)c1ccc(Cl)cc1)N1CCc2ccccc2C1 (stereo not drawn)" numeric_result=7.02
compound="O=C(C(CNc1ccccc1F)c1ccc(C(F)(F)F)cc1)N1Cc2ccccc2C1 (stereo not drawn)" numeric_result=6.77
compound="O=C(C(Nc1ccccc1)c1ccc(C(F)(F)F)cc1)N1CCCCC1c1ccccc1 (stereo not drawn)" numeric_result=7.24
compound="O=C(C(Nc1ccccc1)c1ccc(C(F)(F)F)cc1)N1CCCC1c1ccccc1C(F)(F)F (single isomer, unassigned) [Cpd 30]" numeric_result=6.96
compound="COc1ccccc1C1CCCN1C(=O)C(Nc1ccccc1F)c1ccc(Br)cc1 (single isomer, unassigned) [Cpd 176]" numeric_result=7.52
compound="CC(C)(C)c1ccc(C(Nc2ccccc2)C(=O)N2CCCC2c2cccnc2)cc1 (stereo not drawn)" numeric_result=7.00
compound="O=C(C(Nc1ccccc1)c1ccc(Cl)cc1)N1CCCC1c1ccccc1 (stereo not drawn)" numeric_result=7.82
compound="O=C(C(Nc1c(F)cccc1F)c1ccc(Cl)cc1)N1CCCC1c1ccccc1Cl (stereo not drawn)" numeric_result=7.60
